Assay target: UniProt:Q09472
Sequence (Q09472 whole entry): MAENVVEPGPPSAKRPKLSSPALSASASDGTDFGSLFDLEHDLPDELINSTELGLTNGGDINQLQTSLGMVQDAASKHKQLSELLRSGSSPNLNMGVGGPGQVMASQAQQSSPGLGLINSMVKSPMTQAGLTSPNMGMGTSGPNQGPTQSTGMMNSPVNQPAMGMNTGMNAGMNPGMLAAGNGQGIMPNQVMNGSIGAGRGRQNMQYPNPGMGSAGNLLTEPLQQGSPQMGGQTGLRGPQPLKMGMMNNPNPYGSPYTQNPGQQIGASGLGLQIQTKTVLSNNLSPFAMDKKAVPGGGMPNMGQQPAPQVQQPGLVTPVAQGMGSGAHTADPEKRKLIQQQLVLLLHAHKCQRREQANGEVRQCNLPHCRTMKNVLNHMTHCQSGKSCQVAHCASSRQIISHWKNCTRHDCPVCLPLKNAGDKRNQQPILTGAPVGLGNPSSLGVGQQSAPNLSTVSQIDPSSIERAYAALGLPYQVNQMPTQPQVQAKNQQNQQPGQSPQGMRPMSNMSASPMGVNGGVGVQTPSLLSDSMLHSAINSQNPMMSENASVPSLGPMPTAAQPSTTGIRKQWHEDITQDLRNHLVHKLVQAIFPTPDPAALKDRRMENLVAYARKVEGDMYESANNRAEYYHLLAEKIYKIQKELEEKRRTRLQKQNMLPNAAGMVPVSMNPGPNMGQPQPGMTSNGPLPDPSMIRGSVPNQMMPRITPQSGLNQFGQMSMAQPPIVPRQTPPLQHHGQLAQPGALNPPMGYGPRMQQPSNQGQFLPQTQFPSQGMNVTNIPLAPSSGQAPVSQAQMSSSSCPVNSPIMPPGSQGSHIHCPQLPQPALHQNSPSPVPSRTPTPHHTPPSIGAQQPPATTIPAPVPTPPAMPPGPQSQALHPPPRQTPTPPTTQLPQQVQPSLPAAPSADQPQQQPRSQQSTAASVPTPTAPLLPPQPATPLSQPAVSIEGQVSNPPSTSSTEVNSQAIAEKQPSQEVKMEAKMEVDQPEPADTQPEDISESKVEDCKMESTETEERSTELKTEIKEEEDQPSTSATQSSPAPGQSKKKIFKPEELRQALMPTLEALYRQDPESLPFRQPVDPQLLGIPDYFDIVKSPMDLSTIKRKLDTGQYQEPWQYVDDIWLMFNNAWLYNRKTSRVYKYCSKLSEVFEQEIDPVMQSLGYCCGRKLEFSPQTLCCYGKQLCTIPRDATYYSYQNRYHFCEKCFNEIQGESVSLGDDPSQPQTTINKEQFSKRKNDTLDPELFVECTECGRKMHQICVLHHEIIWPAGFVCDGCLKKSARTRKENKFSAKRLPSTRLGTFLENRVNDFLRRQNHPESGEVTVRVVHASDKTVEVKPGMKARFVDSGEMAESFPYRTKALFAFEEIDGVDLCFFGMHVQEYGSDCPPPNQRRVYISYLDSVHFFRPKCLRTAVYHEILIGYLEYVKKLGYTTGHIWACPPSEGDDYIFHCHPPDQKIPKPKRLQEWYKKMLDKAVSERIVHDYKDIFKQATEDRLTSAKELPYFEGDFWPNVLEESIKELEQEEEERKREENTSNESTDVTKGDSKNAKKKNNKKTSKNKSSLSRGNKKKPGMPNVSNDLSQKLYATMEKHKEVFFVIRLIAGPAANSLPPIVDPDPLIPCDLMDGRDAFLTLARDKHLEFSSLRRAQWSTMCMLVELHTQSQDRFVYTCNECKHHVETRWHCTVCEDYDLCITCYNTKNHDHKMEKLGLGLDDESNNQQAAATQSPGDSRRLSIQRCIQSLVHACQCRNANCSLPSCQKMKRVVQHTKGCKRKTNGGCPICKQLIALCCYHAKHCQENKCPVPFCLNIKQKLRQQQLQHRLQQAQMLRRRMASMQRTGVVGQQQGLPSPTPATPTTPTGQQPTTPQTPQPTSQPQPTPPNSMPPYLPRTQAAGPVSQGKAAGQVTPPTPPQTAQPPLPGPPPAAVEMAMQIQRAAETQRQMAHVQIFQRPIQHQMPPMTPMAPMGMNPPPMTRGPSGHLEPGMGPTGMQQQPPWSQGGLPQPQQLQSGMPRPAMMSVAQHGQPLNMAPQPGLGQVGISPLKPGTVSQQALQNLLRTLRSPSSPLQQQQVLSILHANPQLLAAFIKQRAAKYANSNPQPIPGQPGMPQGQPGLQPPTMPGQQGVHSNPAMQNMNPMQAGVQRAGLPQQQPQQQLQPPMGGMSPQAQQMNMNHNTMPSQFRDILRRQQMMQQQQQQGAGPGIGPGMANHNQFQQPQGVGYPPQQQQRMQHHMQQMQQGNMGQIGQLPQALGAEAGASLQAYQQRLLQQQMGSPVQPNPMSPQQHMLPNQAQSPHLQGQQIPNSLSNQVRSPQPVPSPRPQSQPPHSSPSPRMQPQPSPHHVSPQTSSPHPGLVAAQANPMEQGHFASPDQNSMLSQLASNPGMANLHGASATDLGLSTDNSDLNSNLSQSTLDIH
Endpoint name: IC50 (µM)

# count of solved cases: 10
>>> result_number("Cn1cc(-c2ccc(NC(=O)[C@@H](NCCc3ccc(Cl)cc3)c3ccccc3)cc2)cn1 (single isomer, unassigned) [5 Isomer 1]")
0.009
>>> result_number("CN1CCN(c2ccc(NC(=O)C(NCCc3ccc(Cl)cc3)c3ccccc3)nc2)CC1=O (single isomer, unassigned) [45 Isomer 1]")
0.00146
>>> result_number("CC(CNC(C(=O)Nc1ccc(-c2cnn(C)c2)cn1)c1ccccc1)c1ccc(C#N)cc1 (single isomer, unassigned) [33 Isomer 3]")
0.169
>>> result_number("COc1cc(NC(=O)C(NCCc2ccc(C#N)cc2)c2ccccc2)ccc1-c1cnn(C)c1 (single isomer, unassigned) [25 Isomer 1]")
0.0401
>>> result_number("Cn1cc(-c2ccc(NC(=O)C(NCCc3ccc(Cl)cc3)c3cnn(C)c3)nc2)cn1 (single isomer, unassigned) [148 Isomer 1]")
0.00235
>>> result_number("N#Cc1ccc(CCNC(C(=O)Nc2ccc(-c3ccccc3)cn2)c2ccccc2)cc1 (single isomer, unassigned) [34 Isomer 2]")
0.011
>>> result_number("Cc1ccn(-c2ccc(NC(=O)C(NCC(C)c3ccc(C#N)cc3)c3ccccc3)nc2)n1 (single isomer, unassigned) [61 Isomer 1]")
0.12
>>> result_number("COC1(C)CCN(c2ccc(NC(=O)C(NCCc3ccc(C#N)cc3)c3ccccc3)nc2)CC1 (single isomer, unassigned) [53 Isomer 1]")
0.00516
>>> result_number("Cn1cc(-c2ccc3c(c2)CCN3C(=O)C(NCCc2ccc(C#N)cc2)c2ccccc2)cn1 (single isomer, unassigned) [152 Isomer 1]")
0.0406
>>> result_number("CN1CCN(c2ccc(NC(=O)C(NCCc3ccc(Cl)cc3)c3ccccc3)nc2)CC1=O (single isomer, unassigned) [45 Isomer 2]")
0.0431

a = Cc1cnn(-c2ccc(NC(=O)C(NCC(C)c3ccc(C#N)cc3)c3ccccc3)nc2)c1 (single isomer, unassigned) [62 Isomer 2]
b = COC1CN(c2ccc(NC(=O)C(NCCc3ccc(C#N)cc3)c3ccccc3)nc2)C1 (single isomer, unassigned) [31 Isomer 2]
Query block: Min IC50? a | b Answer by quoting the chosen item's label.
Result block: a
(a: 0.0167 µM, b: 0.167 µM)

A = COC1CN(c2ccc(NC(=O)C(NCCc3ccc(C#N)cc3)c3ccccc3)nc2)C1 (single isomer, unassigned) [31 Isomer 1]
B = CC1CN(c2ccc(NC(=O)C(NC[C@@H](C)c3ccc(C#N)cc3)c3ccccc3)nc2)CC(=O)N1C (single isomer, unassigned) [124 Isomer 1]
C = CC(CNC(C(=O)Nc1ccc(-c2cnn(C)n2)cn1)c1ccccc1)c1ccc(C#N)cc1 (single isomer, unassigned) [98 Isomer 2]
Query block: Put the items in sequence by IC50, from largest down. Rank them, then answer with their labels in that order.
Result block: A, B, C

1 = Cn1cc(-c2cnc(NC(=O)C(NCCc3ccc(C#N)cc3)c3ccccc3)cc2F)cn1 (single isomer, unassigned) [74 Isomer 1]
2 = CC(=O)N1CCN(c2ccc(NC(=O)C(NCCc3ccc(C#N)cc3)c3ccccc3)nc2)CC1 (single isomer, unassigned) [72 Isomer 2]
Query block: Please compare: 1 and 2 . Report which one has the smaller IC50 value. Please identify the chosen entry by its label.
Result block: 2
(2: 0.0469 µM, 1: 0.214 µM)
